Read-out: Interleukin-8 (IL8), CXCL8 (gene 3576)
assayName: BSK_3C_IL8: BioMAP Diversity Plus: 3C Assay for Interleukin-8 (IL8) Biomarker Activity (AID 2283020)
conditionParameters: primary human endothelial cells (HUVEC); actives raise or lower the signal
Description: BSK_3C is a cell-based, multiplexed-readout assay that uses umbilical vein endothelium, a human vascular primary cell, with measurements taken at 24 hours after chemical dosing in a 96-well plate.BSK_3C_IL8 is an assay component measured in the BSK_3C assay. It measures IL-8 antibody related to regulation of gene expression using ELISA technology.Data from the assay component BSK_3C_IL8 was analyzed into 1 assay endpoint. […]
Activity calls are given as the source filed them. How the source made its calls: active means hit-call score of the fitted dose curve at least 0.9, where 1 is the maximum; inactive means score below 0.9.
Please answer using one outcome listed in active, inactive

CCCSC(=O)N(CCC)CCC	inactive
CC(C)(C)OOC(=O)c1ccccc1	inactive
CN(C)c1ccccc1	inactive
Cc1ccc(N)cc1	inactive
CCN(CC)N=O	inactive

Exercise: Which outcome did this test record for the compound Clc1ccccc1Cl ?
Solution: inactive

Exercise: Which outcome did this test record for the compound CO[C@@H]1[C@H](OC(=O)NC(=O)CCl)CC[C@]2(CO2)[C@H]1[C@@]1(C)O[C@@H]1CC=C(C)C ?
Solution: inactive

Hey, just so you know, these numbers are from PubChem BioAssay (EPA / NIEHS).
